assayed target: PGR (gene 5241)
measurement protocol: TOX21_PR_LUC_Followup_Antagonist: Tox21 HEK293 Progesterone Receptor (PR) Antagonism Luciferase Follow-Up Assay (AID 2283938);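 also: curve fitted upward as signal gain over DMSO baseline despite antagonist label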
Text: TOX21_PR_LUC_Followup is a secondary assay for specificity for the TOX21_PR_BLA_Agonist assay. To differentiate true PR agonists from cytotoxic substances, this follow up assay is multiplexed with a cell viability assay.TOX21_PR_LUC_Followup_Antagonist is one of one assay component(s) measured or calculated from the TOX21_PR_LUC_Followup assay. […] Furthermore, this assay endpoint can be referred to as a primary readout, because the performed assay has only produced 1 assay endpoint. […]
Inconclusive results are not listed. Activity calls are given as the source filed them. The calls were made as follows: active = hit-call score of the fitted dose curve at least 0.9, where 1 is the maximum; inconclusive = response in the unintended direction; inactive = score below 0.9.
assay readout: AC50

Consider the reported AC50 for these compounds:
>  <compound>
C[C@]12CC[C@H](O)CC1=CC[C@@H]1[C@@H]2CC[C@]2(C)C(=O)CC[C@@H]12

>  <AC50>
inactive

$$$$
>  <compound>
CC(C)C1CCC(Cc2ccc(Cl)cc2)C1(O)Cn1cncn1 (stereo not drawn)

>  <AC50>
22 µM (active)

$$$$
>  <compound>
Oc1ccc(-c2ccccc2)cc1

>  <AC50>
33 µM (active)

$$$$
>  <compound>
C[C@H]1CCCC(=O)CCC/C=C/c2cc(O)cc(O)c2C(=O)O1

>  <AC50>
inactive

$$$$
>  <compound>
O=C1C2(Cl)C3(Cl)C4(Cl)C(Cl)(Cl)C5(Cl)C3(Cl)C1(Cl)C5(Cl)C24Cl (stereo not drawn)

>  <AC50>
33.8 µM (active)

$$$$

Below is a list of compounds. For each, state its recorded AC50.
1. Nc1ccc(-c2ccc(N)c(Cl)c2)cc1Cl
2. CC1(C)CCC(Cc2ccc(Cl)cc2)C1(O)Cn1cncn1 (stereo not drawn)

Found:
6.09 µM (active)
21.6 µM (active)

Lookup: Item under review: CC12CC1(C)C(=O)N(c1cc(Cl)cc(Cl)c1)C2=O (stereo not drawn) . Reported AC50?
Found: inactive

====

measurement protocol: Tanguay_ZF_120hpf_PE_legacy: (Legacy) Oregon State University Tanguay Lab 120 Hour Post-fertilization zebrafish Assay for Pericardial Edema (AID 2283640)
Records with an inconclusive call do not appear. The source made the active and inactive calls. How the source made its calls: active means hit-call score of the fitted dose curve at least 0.9, where 1 is the maximum; inconclusive means response in the unintended direction; inactive means score below 0.9.
assay readout: outcome

>  <cpd smiles>
CC(C)(OO)c1ccccc1

>  <test value>
inactive

$$$$
>  <cpd smiles>
O=C(O)C(F)(F)C(F)(F)C(F)(F)C(F)(F)C(F)(F)C(F)(F)F

>  <test value>
inactive

$$$$
>  <cpd smiles>
CC(C)(c1ccccc1)c1ccc(O)c(C(C)(C)c2ccccc2)c1

>  <test value>
inactive

$$$$

====

Read-out: Macrophage colony-stimulating factor (MCSF), CSF1 (gene 1435)
measurement protocol: BSK_LPS_MCSF: BioMAP Diversity Plus: LPS Assay for Macrophage colony-stimulating factor (MCSF) Biomarker Activity (AID 2283083)
experimental parameters: primary human HUVEC with PBMC; actives raise or lower the signal
Active and inactive are the calls of the source. How the source made its calls: active means hit-call score of the fitted dose curve at least 0.9, where 1 is the maximum; inactive means score below 0.9.
Outcome (select one): T for active, F for inactive

Lookup: // return assay outcome for ClCC(Cl)CCl
Found: F

Lookup: And C(=NC1CCCCC1)=NC1CCCCC1 ?
Found: T

Lookup: And Cc1ccccc1N ?
Found: F

Lookup: And COc1cc(OC)nc(NC(=O)NS(=O)(=O)c2ncccc2C(=O)N(C)C)n1 ?
Found: F
